# System: MCF7
# test details: Antiproliferative activity against human p53+/- MCF7 cells after 48 hrs by SRB assay
# Format: functional
# applied conditions: MCF7, 48 h
measured endpoint: GI50 (µM)

Consider the following illustrative entries.
> print(dat)
                            chemical.smiles  target.entity  measured.endpoint  unit.descriptor  obs.value
1  O=C1C(=O)N(CCCNc2ccnc3cc(Cl)ccc23)c2cccc(Cl)c21           MCF7               GI50               µM       46.7
2             Clc1ccc2c(NCCCN3CCCC3)ccnc2c1           MCF7               GI50               µM       21.4
3  Clc1ccc2c(NCCCN3CCN(c4ccccc4)CC3)ccnc2c1           MCF7               GI50               µM       12.8
4      FC(F)(F)c1ccc2c(NCCCN3CCOCC3)ccnc2c1           MCF7               GI50               µM       38.8
5  O=C1C(=O)N(CCCNc2ccnc3cc(Cl)ccc23)c2cccc(Br)c21           MCF7               GI50               µM       6.57
6  O=C1C(=O)N(CCCNc2ccnc3cc(C(F)(F)F)ccc23)c2cc(Cl)ccc21           MCF7               GI50               µM       14.3

A. FC(F)(F)c1ccc2c(N3CCN(CCCNc4ccnc5cc(Cl)ccc45)CC3)ccnc2c1
B. CCN(CC)CCCNc1ccnc2cc(Cl)ccc12
Ask: I would appreciate it if you could say which entry, A or B , has the lower GI50 value. # answer = label of selected item
Result: A

I. CN1CCN(CCCNc2ccnc3cc(C(F)(F)F)ccc23)CC1
II. Clc1ccc2c(NCCCN3CCN(c4ccnc5cc(Cl)ccc45)CC3)ccnc2c1
Ask: Sorting ascending by GI50, which comes first: I or II ? Give the chosen item's label as your response.
Result: II
